Here the recorded CP50 is given for each entry.
System: HaLo-GFP-mito HeLa cells
Experiment: Chloroalkane penetration assay (CAPA)
Format: in vitro ADME
Details: CAPA, chloroalkane-tagged peptide, 4 h in Opti-MEM, 37 °C, chase HaLo-Tag TMR ligand 5 µM 15 min, flow cytometry; mean ± SEM of three independent experiments
Protocol: Following the addition of chloroacetyl-NHS to the N-terminal amino group, Cys(mmt) was selectively deprotected using 1% TFA, 5% triisopropylsilane in DCM (30 min, RT). […] CAPA assays were performed following the protocol published in ref. [51]. […] Cells were then trypsinised, resuspended in phosphate-buffered saline (PBS) with 0.5% FBS and analysed using a benchtop flow cytometer (MACSQuant® VYB Flow cytometer Milteny Biotec). […]
Bridge positions count the residues as written; N and C are the ends. Square brackets hold non-standard residues; d marks the D form. Peptide text beside a SMILES is read from it.

[
  {
    "Compound": "CC(C)C[C@H](NC(=O)[C@H](CCC(N)=O)NC(=O)[C@H](CC(C)C)NC(=O)[C@@H](NC(=O)[C@H](CCC(N)=O)NC(=O)[C@H](CCCNC(=N)N)NC(=O)[C@H](Cc1ccc(O)cc1)NC(=O)[C@H](CCCNC(=N)N)NC(=O)[C@@H]1CSCC(=O)N[C@@H](Cc2ccc(O)cc2)C(=O)N[C@@H](CO)C(=O)N[C@@H](CCC(=O)O)C(=O)N1)C(C)C)C(N)=O [PADI4_11i] ({CH2CO}-YSECRYRQVLQL-NH2; thioether N-4)",
    "Reading unit": "µM",
    "CP50": 2.0
  },
  {
    "Compound": "N=C(N)NCCC[C@@H]1NC(=O)[C@H](CC(=O)O)NC(=O)[C@@H](Cc2ccc(O)cc2)NC(=O)CSC[C@@H](C(=O)NCC(N)=O)NC(=O)[C@H](Cc2ccc(O)cc2)NC(=O)[C@H](CCCCN)NC(=O)[C@@H]2CCCN2C(=O)[C@H](Cc2c[nH]cn2)NC(=O)[C@H](CCCNC(=N)N)NC(=O)[C@H](Cc2ccc(O)cc2)NC(=O)[C@H](Cc2c[nH]cn2)NC(=O)[C@H](Cc2c[nH]cn2)NC1=O [PADI4_3i] ({CH2CO}-[dY]DRHHYRHPKYCG-NH2; thioether N-12)",
    "Reading unit": "µM",
    "CP50": 2.0
  },
  {
    "Compound": "N=C(N)NCCC[C@@H]1NC(=O)[C@H](Cc2ccc(O)cc2)NC(=O)[C@H](Cc2c[nH]cn2)NC(=O)[C@H](Cc2c[nH]cn2)NC(=O)[C@H](CC(=O)O)NC(=O)[C@H](CCCNC(=N)N)NC(=O)[C@@H](Cc2ccc(O)cc2)NC(=O)CSC[C@@H](C(=O)NCC(N)=O)NC(=O)[C@H](Cc2ccc(O)cc2)NC(=O)[C@H](CCCCN)NC(=O)[C@@H]2CCCN2C(=O)[C@H](Cc2c[nH]cn2)NC1=O [PADI4_3] ({CH2CO}-[dY]RDHHYRHPKYCG-NH2; thioether N-12)",
    "Reading unit": "µM",
    "CP50": 1.4
  },
  {
    "Compound": "CC(C)C[C@H](NC(=O)[C@H](CCC(N)=O)NC(=O)[C@H](CC(C)C)NC(=O)[C@@H](NC(=O)[C@H](CCC(N)=O)NC(=O)[C@H](CCCNC(=N)N)NC(=O)[C@H](Cc1ccc(O)cc1)NC(=O)[C@H](CCCNC(=N)N)NC(=O)[C@@H]1CSCC(=O)N[C@@H](Cc2ccc(O)cc2)C(=O)N[C@@H](CCC(=O)O)C(=O)N[C@@H](CO)C(=O)N1)C(C)C)C(N)=O [PADI4_11] ({CH2CO}-YESCRYRQVLQL-NH2; thioether N-4)",
    "Reading unit": "µM",
    "CP50": 3.1
  }
]
